Hey, just so you know, these numbers are from PubChem BioAssay AID489027.

target or system: UPR counterscreen luciferase reporter, luminescence
protocol description: luciferase reporter activation, UPR counterscreen line – cell-based, luminescence, counter-screen for adaptive UPR activator project, dose response (AID 489027)
Calls of active or inactive are those of the source. No rule for the calls is given here.
// one of Yes (active), No (inactive), no free text

GET /call?item= CCC(C)Nc1nc(N)c([N+](=O)[O-])c(NC2CCCCC2)n1 (configuration not stated) returns the recorded outcome of this test.
No

Record request — test call for `Brc1ccc(-c2ccc(/C=N/Nc3nncc(-c4ccccc4)n3)o2)cc1`
Yes

Hi, sorry to bother you, what did the test record for `CCCCCCCCCCOC(=O)Cn1c(COc2ccccc2OC)[n+](C)c2ccccc21` ?
Yes

# fetch the recorded call for `CC(=O)c1cccc(Nc2nc(-c3cccc([N+](=O)[O-])c3)cs2)c1` here
No

Hi, do you know how CC1=CC(C)[C@H](/C=N/n2c(=O)[nH]c3c([nH]c4ccc(C)cc43)c2=O)C(C)C1 (some centres not stated) came out in this test?
No

Tell me the recorded outcome of this test for `Cc1ccc(Nc2nc(NCCO)c3ccccc3n2)cc1C` .
No

Per the assay record, what outcome was assigned to `CCN(CC)c1ccc(-c2nn3c(-c4ccccc4OC)nnc3s2)cc1` ?
No

Record lookup: outcome of this test for `COc1cc(-c2ccc3oc(-c4ccsc4)cc3c2)cc(OC)c1OC` ?
No

Record request — test call for COc1cc(N(C(=O)Cc2cccs2)C(C(=O)NC2CCCCC2)c2ccc(C)cc2)ccc1-n1cnnn1 (configuration not stated)
No

Which outcome was assigned to `C/C(CC(C)(C)C1CCCCC1)=N\NC(N)=S` in this test?
Yes

Hi, sorry to bother you, what did the test record for `CCOC(=O)/C(=C\c1ccccc1)C(=O)c1cc(C(C)=O)c(Nc2ccccc2)s1` ?
Yes

Which outcome was assigned to CCOC(=O)C1=C(C)N=C2SC(C(=O)OC)=CC(=O)N2C1c1ccc(F)cc1 (configuration not stated) in this test?
No

Dear colleague, could you share the recorded outcome for `O=C(Cn1c2ccc(F)cc2c2nc3n(c(=O)c21)CCS3)Nc1ccc(Cl)cc1F` when you have a moment?
No

GET /call?item= `Cc1nc(SCC(=O)Nc2ccc(F)cc2)c(C#N)c(C)c1CC(=O)c1ccc(Br)cc1` returns the recorded outcome of this test.
No

Fill in: this test's call for CC1C/C(=N/Nc2nc3ccccc3[nH]2)CC(C)(C)C1 (configuration not stated) is ___
Yes

What is the recorded call for this compound in the test? `Cc1cccc(NC(=O)/C(C#N)=C/c2cn(CC(=O)NCc3ccco3)c3ccccc23)c1C`
No

For `O=c1[nH]c(O)c(/C=C2/C=CC(c3cc(Cl)ccc3Cl)=N2)c(=O)[nH]1` , what call appears in the results of this test?
Yes

For this compound, state the assay outcome: `Cc1ccc2oc(C(Cl)(Cl)Cl)cc(=O)c2c1`
No

Per the records of this test, what outcome belongs to `COC(=O)c1cc([N+](=O)[O-])c(-n2ccnc2)c([N+](=O)[O-])c1` ?
No

Per the assay record, what outcome was assigned to `Cc1cc(C)c2c(CCl)cc(=O)oc2c1` ?
Yes

What outcome does the record of this test show for `CCc1nc(N=Nc2c(O)[nH]c3ccccc23)c2c3c(sc2n1)CCC3` ?
Yes

What did this assay record as the result for CN(C)CCCn1cnc2c(c1=N)C(c1ccccc1)c1ccc3ccccc3c1O2 (configuration not stated) ?
Yes

Recorded call for `CCCCOc1ccccc1NC(=O)Cn1c(-c2nonc2N)nc2ccccc21` ?
No

GET /call?item= `Cc1ccc2c(c1)C(c1ccc([N+](=O)[O-])cc1)=NNC(c1ccc(Br)cc1)=N2` returns the recorded outcome of this test.
No

Please share the test call associated with `COc1cc(NC(=O)c2ccco2)c(C(=O)OCC(=O)c2c[nH]c3ccccc23)cc1OC` .
No

Just curious, what result did `N#C/C(=C/c1ccc(N2CCCC2)c([N+](=O)[O-])c1)c1nc2ccccc2[nH]1` get here?
No

Please state the recorded outcome for this compound: `O=c1oc(CCCO)cc2ccc(/C=C/c3cccc([N+](=O)[O-])c3)cc12`
No

Hi, do you know how `O=C(COc1ccc(Cl)cc1Cl)NN=C1c2ccccc2-c2ccccc21` came out in this test?
No

Name the outcome recorded for `COc1cc(C(=O)Nc2nc(-c3ccc(Cl)cc3)c(C)s2)ccc1OCC(=O)Nc1ccc(F)cc1` in the assay.
Yes

What did this assay record as the result for `Cc1ccc(-c2[nH]ncc2/C=N/n2c(COc3ccccc3)nc3ccccc3c2=O)cc1` ?
No

I would be grateful if you could indicate the recorded call for `Cc1cc(NC(=O)CSc2nc3cc(Cl)ccc3c(=O)n2Cc2ccco2)no1` .
No

Look up the recorded call for `COC(=O)c1c(NC(=O)c2nc3ccccc3s2)sc2c1CC(C)(C)NC2(C)C` in this test.
No
